Test system: HIV-1 infection of TZM-bl cells
test_method_notes: HIV-1 infectivity enhancement assay, β-galactosidase luminescence
Type: cell-based
details: infectivity class (low / medium / high) of the peptide in the sequence-pattern analysis, Fig. S22-A4; class limits not given
measurement_kind: infectivity

Below: 5 substances and their reported infectivity.
HHHHKIKIQINMYYYY [TM16] ... high
KIKIKIQI [TG13] ... low
KIKIQINMWWWQ [VH12] ... high
CKAKAQA [TM155] ... low
HHHHKAKAKAKAYYYY [TM10] ... low

Note infectivity for the substance shown: CKIKQIIRGD [psis22]
low

Give infectivity for KIKIQIRGD [MG6]
low

Check the records and state infectivity for CKIKIQIII [AR0 / F19]
high

* * *

System: HIV-1 infection of TZM-bl cells
test_method_notes: HIV-1 infectivity enhancement assay, β-galactosidase luminescence
Type: cell-based
details: Fig S8 panels B, D; infectivity n-fold relative to virus alone
measurement_kind: n-fold to virus
Lab note: jot down the number only; don't add units.

CKFKFQFW [TM72] ... 37.01
HIHIQIC [CN12] ... 11.38
CKFKQFFNM [CK14] ... 17.15
QCKFKQFFNMWQ [CK10] ... 6.098
HHHHKIKIKIKIYYYY [TM6] ... 28.5
CQFQFQF [QBL4] ... 14.84

Here's the next entry for you.
Param request: n-fold to virus | system HIV-1 infection of TZM-bl cells | item KIKQIINMWQ [JG2]
14.5544

* * *

test_method_notes: Aggregate analysis by widefield fluorescence microscopy
Type: physicochemical
details: Fig S8 panels A, C
Experimental: 4 µL of 1 mg/mL peptide fibrils solution is added to a 20 µL, 50 µM ThT–solution in PBS. The mixture is incubated for 15 min at RT to allow binding of ThT dye with β–sheet rich structures. […] Fluorescence spectra were recorded on an Infinite® M1000 PRO microplate reader (Tecan) at λem = 488 nm upon excitation at λex = 440 nm with 10 nm bandwidths and multiple reads per well (3×3). […] Furthermore, fluorescence microscopy was conducted by staining 1 µL preformed fibrils (1 mg/mL) with 9 µL ThT (50 µM). […]
measurement_kind: Log 10 Number of aggregates in 3 * (1330 µm *1330 µm)
Note: the reply should be a number with no unit written.

Determine its reported Log 10 Number of aggregates in 3 * (1330 µm *1330 µm): QCKIKIQINMWQ [EF-C opt]
2.6

* * *

Assay type: physicochemical
details: ThT-active if fluorescence at least twice the control
measurement_kind: ThT Cat. / ThT-Fluorescence (categorical)

QCKAKAQA ... 0 (ThT-inactive (N-Fold <2))

Please report the measured ThT Cat. / ThT-Fluorescence (categorical) for CKIKQIINMWQ
1 (ThT. Cat is 1, if Rel. ThT >2)

In one line, give reported ThT Cat. / ThT-Fluorescence (categorical) of the entry RPRGLLLGNLR .
0 (ThT-inactive (N-Fold <2))

Provide one value: measured ThT Cat. / ThT-Fluorescence (categorical) of GQTVTK [reference compound]
0 (ThT-inactive (N-Fold <2))

Give the reported ThT Cat. / ThT-Fluorescence (categorical) for this substance. FKFDKFKFDK
0 (ThT-inactive (N-Fold <2))

* * *

test_method_notes: Aggregate analysis by widefield fluorescence microscopy
Type: physicochemical
details: Fig S8 panels A, C
measurement_kind: log Total Area of all particles in 3 * (1330 µm *1330 µm)
The response must contain the number and no unit.

QCKIKQIINMWQ [reference compound] ... 4.467
CKFKFQFNM [BL3] ... 3.53

Give the value of log Total Area of all particles in 3 * (1330 µm *1330 µm) reported for the following: CKFKFQFW [TM72]
4.162

For the substance KWKWQW [KB3] , give its measured log Total Area of all particles in 3 * (1330 µm *1330 µm) value.
3.491

Supply measured log Total Area of all particles in 3 * (1330 µm *1330 µm) of CKFKFQF [BL4] in your reply.
4.0456

For the substance HHHHKIKIKIKIWWWW [TM4] , report log Total Area of all particles in 3 * (1330 µm *1330 µm).
4.348

* * *

test_method_notes: Turbidity, derived count rate of scattered light
Type: physicochemical
details: derived count rate from zeta measurement; mean
measurement_kind: Zeta Count Rate / kcps

Recorded results for 5 substances are shown here.
CEIEIQINM [TM144] ... 58.43 kcps
KIKQII [msis21] ... 122 kcps
KIKQIIN [JGA3] ... 64.03 kcps
CEFEFQF [KB12] ... 405.4 kcps
KVKVQVV [TG2] ... 27.73 kcps

Tell me measured Zeta Count Rate / kcps for CKIKQII [MG4a] please.
74.6 kcps

Give reported Zeta Count Rate / kcps value for CEIEIQI [AR2/ TM142]
51.97 kcps

Provide one value: measured Zeta Count Rate / kcps of KVKVQVVV [TG8]
163.1 kcps

Note down Zeta Count Rate / kcps recorded for KIKIQIII [TG7]
94.97 kcps

Identify measured Zeta Count Rate / kcps corresponding to RGDKIKIQINMC [psis29]
1404 kcps

Report Zeta Count Rate / kcps, nothing else, for this substance: CKIKQIINMWQ [MG5a / CK17]
8317 kcps

* * *

test_method_notes: Zeta-potential measurement
Assay type: physicochemical
details: zeta potential of peptide; Fig S15 source data
Experimental: 4 µL of 1 mg/mL peptide fibrils solution is added to a 20 µL, 50 µM ThT–solution in PBS. The mixture is incubated for 15 min at RT to allow binding of ThT dye with β–sheet rich structures. […] Fluorescence spectra were recorded on an Infinite® M1000 PRO microplate reader (Tecan) at λem = 488 nm upon excitation at λex = 440 nm with 10 nm bandwidths and multiple reads per well (3×3). […] Furthermore, fluorescence microscopy was conducted by staining 1 µL preformed fibrils (1 mg/mL) with 9 µL ThT (50 µM). […]
measurement_kind: Zeta-pot. / mV (mV)
Give just the number in mV; leave the unit off.

KLKLQLL [TG4 / (KM2)] ... -4.93
KFKFQFF [TG6] ... 6.903

Provide one value: measured Zeta-pot. / mV of HHHHEIEIEIEI [JR9]
-6.91

Identify measured Zeta-pot. / mV associated with KKFQKKFQ [CN21]
-9.19

Identify measured Zeta-pot. / mV corresponding to PPFHPPPFHP [CN22]
-15.8

Specify reported Zeta-pot. / mV for the substance shown: KNDKND [CN5]
-15

Please look at this substance and report its Zeta-pot. / mV: SISISRRI [CN28]
-17

Supply Zeta-pot. / mV value. Item: CKIKQIINM [BL1]
12.9

Write down Zeta-pot. / mV measured for item KIKIQIC [TM112 / CN11]
19.93

* * *

test_method_notes: Turbidity, derived count rate of scattered light
Type: physicochemical
details: turbidity, Log10 of derived count rate of scattered light; Figure 3A source data
measurement_kind: Log10 Count Rate
Would you mind answering with just the numeric figure?

Record excerpt, results attached:
KFKFQFW ... 2.086
NMWQKVGTPL ... 1.431
HHHHKIKIKIKIWWWW ... 4.376
RGDSGGGGGGKIKIQIC ... 4.018
KAKAQA ... 1.321
KIKIQIN ... 1.638
CKIKIQIRGD ... 3.762
MKIKIQINMWQ ... 3.169
CHLHLQL ... 3.062
HIHIQIC ... 2.416

Give reported Log10 Count Rate value for QCKFKQFFNMWQ
4.277

Consider the substance KYKGAIIGNIK and give its recorded Log10 Count Rate.
1.644

Give recorded Log10 Count Rate. KIKIKIQI
3

Determine from records and report Log10 Count Rate for HGDKCHGDKC
1.095

Retrieve Log10 Count Rate measured for EIEIQINMWQ and print it.
3.102

Specify measured Log10 Count Rate for CSISIQI .
4.01

Tell me Log10 Count Rate reported for HHHHKAKAKAKAYYYY
2.382

Respond only with Log10 Count Rate recorded for RGDSKIKIQIC
3.431

Write down Log10 Count Rate measured for item KVKVQVV
1.443

Using known records, supply Log10 Count Rate for CEIEIQINMWQ
3.196

* * *

Tested on: HIV-1 infection of TZM-bl cells
test_method_notes: HIV-1 infectivity enhancement assay, β-galactosidase luminescence
Type: cell-based
details: input.xlsx of the Pattern-Analysis script; infectivity relative to EF-C (peptide 59 = 1.00)
// reported infectivity for each item listed
Reply briefly: the number, and no unit.

// known answers, use as guide
NMWQKFKFQF [compound 63] ... 0.27
KAKAKAQA [compound 116] ... 0.00871
HLHLPLL [compound 31] ... 0.01
NMWQKAKAQA [compound 62] ... 0.04
RGEKIKIQINM [compound 33] ... 0.24

Look up infectivity of CKFKFQF [compound 6] and report it.
1.23

Answer with the recorded infectivity for the substance listed here: CKIKQII [compound 100]
0.04

Give infectivity for the following substance: HGEHGEHGE [compound 54]
0.019

State its infectivity: KFKFKFQF [compound 118]
0.80

Write down infectivity measured for item KIKIQIMQWN [compound 160]
0.72

Supply measured infectivity of CKIKIQIII [compound 1] in your reply.
0.98

Provide measured infectivity value, entry: QCKFKQFF [compound 14]
0.0124

Tell us which infectivity value is on record for QCKIKQII [compound 24]
0.00647

Supply reported infectivity belonging to this substance: ILKNLSRSRKIKIQINMWQ [compound 154]
0.32

Dear colleague, please send me the reported infectivity for KIKIQIC [compound 125] when you can.
0.61

Fill in infectivity for record CKWKWQW [compound 94]
0.25

Please report the measured infectivity for KNDKND [compound 52]
0.0105

Return reported infectivity. Input substance: KYKYQY [compound 88]
0.01

For the substance CKAKAQANM [compound 11] , give its reported infectivity.
0.03

Dear colleague, please send me the reported infectivity for HGEHGE [compound 53] when you can.
0.00641

Consider the substance EIEIEIEI [compound 82] . State its measured infectivity.
0.0178

Retrieve infectivity measured for EFEFQF [compound 89] and print it.
0.00327
